Tested on: cancer cell lines classified IM, MSL, M
ASSAY_COMMENT: PRISM screen compound sensitivity correlated with IM, MSL and M subtype of cell lines (101 gene signature)
Format: cell-based
REPORTED_CONDITIONS: correlation of PRISM compound sensitivity with M subtype correlation; test cell set (188 cell lines)
MEASURED_ENDPOINT: M Corr test
Could you keep your reply to the number by itself?

Previously resolved entries follow.
INSERT INTO measurements (compound, measured_number) VALUES
  ('Nc1ncnc2c1c(-c1cnc3[nH]ccc3c1)nn2C1CCCC1', 0.07821),
  ('CN(C[C@@H]1COCCO1)S(=O)(=O)Nc1ccc2ccc3ncc(-c4cnn(C)c4)cc3c(=O)c2c1', '−0.1288'),
  ('C[C@H]1Oc2cc(cnc2N)-c2c(nn(C)c2C#N)CN(C)C(=O)c2ccc(F)cc21', '−0.02078');

Observed M Corr test, cancer cell lines classified IM, MSL, M, [O-][n+]1cccc(CO)c1 [mepiroxol] : 0.0253

###

Tested on: cancer cell lines classified IM, MSL, M
ASSAY_COMMENT: PRISM screen compound sensitivity correlated with IM, MSL and M subtype of cell lines (101 gene signature)
Type: cell-based
REPORTED_CONDITIONS: correlation of PRISM compound sensitivity with M subtype correlation; test cell set (188 cell lines)
Field 'label' (enum: met / not met). Set to met when M Corr test is strictly under -0.01; else not met.

Below, 4 compounds whose answers are already recorded.
INSERT INTO measurements (compound, study_system, class_name) VALUES
  ('Nc1cccc(-c2cc3c(Oc4cccc(O)c4)ncnc3[nH]2)c1', 'cancer cell lines classified IM, MSL, M', 'not met'),
  ('CC(C)=CCC[C@](C)(O)[C@H]1CC[C@]2(C)[C@@H]1[C@H](O)C[C@@H]1[C@@]3(C)CC[C@H](O[C@@H]4O[C@H](CO)[C@@H](O)[C@H](O)[C@H]4O[C@@H]4O[C@H](CO)[C@@H](O)[C@H](O)[C@H]4O)C(C)(C)[C@@H]3CC[C@]12C [ginsenoside-rg3]', 'cancer cell lines classified IM, MSL, M', 'met'),
  ('Cc1cc(C)cc(C(=O)N(C)[C@H](Cc2ccc(-c3ccccc3)cc2)C(=O)N[C@@H](Cc2c[nH]c3ccccc23)C(=O)O)c1', 'cancer cell lines classified IM, MSL, M', 'not met'),
  ('CC(C)C[C@H](NC(=O)CNC(=O)[C@H](Cc1ccc(O)cc1)NC(=O)[C@H](CO)NC(=O)[C@H](Cc1c[nH]c2ccccc12)NC(=O)[C@H](Cc1cnc[nH]1)NC(=O)[C@@H]1CCC(=O)N1)C(=O)N[C@@H](CCCNC(=N)N)C(=O)N1CCC[C@H]1C(=O)NCC(N)=O', 'cancer cell lines classified IM, MSL, M', 'met');

Hello, is M Corr test of the following compound strictly smaller than -0.01? COC(=O)CC[C@@H]1N=C(c2ccccn2)c2cc(Br)ccc2-n2c(C)cnc21 met

Hello, is M Corr test of the following compound strictly smaller than -0.01? Cc1ccc(-n2sc(=O)n(Cc3ccc(F)cc3)c2=O)cc1 met

Hello, is M Corr test of the following compound strictly smaller than -0.01? Nc1nccc2c1ncn2C1C=C(CO)C(O)C1O (centres unmarked) not met

Hello, is M Corr test of the following compound strictly smaller than -0.01? O=C1C(=O)N(Cc2ccc(Cl)c(Cl)c2)c2ccccc21 met

###

Test system: cancer cell lines classified IM, MSL, M
ASSAY_COMMENT: PRISM screen compound sensitivity correlated with IM, MSL and M subtype of cell lines (101 gene signature)
Assay type: cell-based
REPORTED_CONDITIONS: correlation of PRISM compound sensitivity with MSL subtype correlation; test cell set (188 cell lines)
Square brackets hold non-standard residues; d marks the D form. Peptide text beside a SMILES is read from it. * marks the point of attachment. dPhe(4-NHCONH2) = NC(=O)Nc1ccc(C[C@@H](N)C(=O)O)cc1; Dihydroorotyl(S) = O=C1C[C@@H](C(=O)*)NC(=O)N1; dPhe(4-Cl) = N[C@H](Cc1ccc(Cl)cc1)C(=O)O; Phe(4-NH2) = Nc1ccc(C[C@H](N)C(=O)O)cc1; d2Nal = N[C@H](Cc1ccc2ccccc2c1)C(=O)O; Lys(iPr) = CC(C)NCCCC[C@H](N)C(=O)O; d3Pal = N[C@H](Cc1cccnc1)C(=O)O
Field 'label' (enum: Criterion met / Criterion not met). Set to Criterion met when MSL Corr test is strictly under -0.004; else Criterion not met.

Below, 4 compounds whose answers are already recorded.
INSERT INTO assay_data (compound, class_name) VALUES
  ('Cl.NC1CCN(c2cccc(Cl)n2)CC1 [SR-57227A]', 'Criterion met'),
  ('CC(=O)N[C@H](Cc1ccc2ccccc2c1)C(=O)N[C@H](Cc1ccc(Cl)cc1)C(=O)N[C@H](Cc1cccnc1)C(=O)N[C@@H](CO)C(=O)N[C@@H](Cc1ccc(NC(=O)[C@@H]2CC(=O)NC(=O)N2)cc1)C(=O)N[C@H](Cc1ccc(NC(N)=O)cc1)C(=O)N[C@@H](CC(C)C)C(=O)N[C@@H](CCCCNC(C)C)C(=O)N1CCC[C@H]1C(=O)N[C@H](C)C(N)=O [degarelix] (Ac-[d2Nal][dPhe(4-Cl)][d3Pal]S[Phe(4-NH2)](Dihydroorotyl(S))[dPhe(4-NHCONH2)]L[Lys(iPr)]P[dA]-NH2)', 'Criterion met'),
  ('CNC(C)CCC=C(C)C.CNC(C)CCC=C(C)C.O=C(O)[C@@H](O)[C@H](O)[C@H](O)[C@@H](O)C(=O)O [isometheptene-mucate]', 'Criterion not met'),
  ('C[C@@H]1CN(Cc2ccc(F)cc2)CCN1C(=O)COc1ccc(Cl)cc1NC(N)=O.Cl', 'Criterion met');

With those in mind, consider the next compound.
Hello, is MSL Corr test of the following compound strictly smaller than -0.004? OCCn1cc(-c2cnc3nnn(Cc4ccc5ncccc5c4)c3n2)cn1 Criterion not met

###

# key: entry, value: MSL Corr test
System: cancer cell lines classified IM, MSL, M
ASSAY_COMMENT: PRISM screen compound sensitivity correlated with IM, MSL and M subtype of cell lines (101 gene signature)
Type: cell-based
REPORTED_CONDITIONS: correlation of PRISM compound sensitivity with MSL subtype correlation; test cell set (188 cell lines)
Square brackets hold non-standard residues; d marks the D form. Peptide text beside a SMILES is read from it.
Could you keep your reply to the number by itself?

INSERT INTO measurements (compound, measured_number) VALUES
  ('CC(C)C[C@@H]1NC(=O)[C@@H](C(C)C)NC(=O)[C@@H]2CCCN2C(=O)[C@@H](CC(=O)O)NC(=O)[C@@H](Cc2c[nH]c3ccccc23)NC1=O [BQ-123] (cyclo(L[dW][dD]P[dV]))', '−0.1421'),
  ('C[C@H](Nc1ncnc2[nH]cnc12)c1cc2ccc(F)cc2nc1-c1ccccn1 [AMG319]', '−0.08814');

# MSL Corr test (compound: Cc1cc(-c2cc(O)ccc2Cl)cc2nnc(Nc3ccc(OCCN4CCCC4)cc3)nc12 [TG-100572] ) is −0.04088

###

Test system: cancer cell lines classified IM, MSL, M
ASSAY_COMMENT: PRISM screen compound sensitivity correlated with IM, MSL and M subtype of cell lines (101 gene signature)
Format: cell-based
REPORTED_CONDITIONS: correlation of PRISM compound sensitivity with M subtype correlation; test cell set (188 cell lines)
Square brackets hold non-standard residues; d marks the D form. Peptide text beside a SMILES is read from it. dPhe(4-Cl) = N[C@H](Cc1ccc(Cl)cc1)C(=O)O; d2Nal = N[C@H](Cc1ccc2ccccc2c1)C(=O)O; dCit = NC(=O)NCCC[C@@H](N)C(=O)O; d3Pal = N[C@H](Cc1cccnc1)C(=O)O
MEASURED_ENDPOINT: M Corr test
Could you keep your reply to the number by itself?

Previously resolved entries follow.
INSERT INTO measurements (compound, measured_endpoint, measured_number) VALUES
  ('Cc1cc(OCCCS(C)(=O)=O)cc(C)c1-c1cccc(COc2ccc3c(c2)OC[C@H]3CC(=O)O)c1', 'M Corr test', '−0.00346'),
  ('CCCCCCCC/C=C\CCCCCCCC(=O)NCCc1ccc(O)c(O)c1', 'M Corr test', '−0.1742'),
  ('C[CH2][Hg][S]c1ccccc1C(=O)[O-].[Na+]', 'M Corr test', '−0.2551'),
  ('CCNCCCNCCCCNCCCNCC', 'M Corr test', '−0.0837'),
  ('Cc1ccc(S(=O)(=O)/C=C/C#N)cc1', 'M Corr test', '−0.1474');

# M Corr test (compound: Cc1cc(CN2CCN(c3c(Br)cnc4nc(-c5ccc(N6CCN(C)CC6)cc5)[nH]c34)CC2)no1 ) is −0.09289

# M Corr test (compound: Cc1ccc(CNc2ncnc3ccc(-c4ccc(CO)o4)cc23)o1 ) is 0.05836

# M Corr test (compound: C#Cc1cccc(Nc2ncnc3cc(OCCOC)c(OCCO)cc23)c1 ) is 0.1416

# M Corr test (compound: C[C@H](N[C@@H](CCc1ccccc1)C(=O)O)C(=O)N1CCC[C@H]1C(=O)O ) is −0.06381

# M Corr test (compound: C/C(=C\C(=O)Nc1ccccc1C(=O)O)c1ccc2ccccc2c1 ) is 0.141

# M Corr test (compound: CC(=O)N[C@H](Cc1ccc2ccccc2c1)C(=O)N[C@H](Cc1ccc(Cl)cc1)C(=O)N[C@H](Cc1cccnc1)C(=O)N[C@@H](CO)C(=O)N[C@@H](Cc1ccc(O)cc1)C(=O)N[C@H](CCCNC(N)=O)C(=O)N[C@@H](CC(C)C)C(=O)N[C@@H](CCCNC(=N)N)C(=O)N1CCC[C@H]1C(=O)N[C@H](C)C(N)=O [cetrorelix] (Ac-[d2Nal][dPhe(4-Cl)][d3Pal]SY[dCit]LRP[dA]-NH2) ) is −0.05533

# M Corr test (compound: CCCCC1OC(=O)c2ccccc21 (stereo not shown) [butylphthalide] ) is −0.03289

# M Corr test (compound: C[C@@H]1CN(Cc2ccc(F)cc2)CCN1C(=O)COc1ccc(Cl)cc1NC(N)=O.Cl ) is −0.08132

# M Corr test (compound: CCC(O)(c1ccccc1)c1cccc(C(F)(F)F)c1 (stereo not shown) ) is −0.06491

# M Corr test (compound: C[C@@]1(O)[C@H](O)[C@@H](CO)O[C@H]1n1cnc2c(NC3CCCC3)nc(Cl)nc21 ) is 0.03452

# M Corr test (compound: COC(=O)[C@H](NC(=O)c1cc(-c2ccccc2)nc2ccccc12)c1ccccc1 ) is 0.01779
